# study_system: Streptavidin (Streptomyces avidinii)
# test_description: streptavidin binders on small-molecule microarray, primary screen, artefact control for SMM compound annotation, biophysical, 635/667 nm fluorescence (AID 1147);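 also: signal reflects streptavidin binding to arrayed compounds as a control protein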
# measurement_parameters: streptavidin binding, higher = more signal
Each record here notes measured composite z-score.
property_name: composite z-score

{"molecule": "COC(=O)CC=C[C@@H](C)[C@@H](C=NOC[C@@H](O)[C@H]1O[C@@H]2OC(C)(C)O[C@@H]2[C@H]1O)OC", "experimental_result": 0.271}
{"molecule": "CC(CCN1CCCc2nc(C)c(C)cc21)=NO[C@H](C)c1cn([C@H](CO)Cc2ccccc2)nn1", "experimental_result": -0.0592}
{"molecule": "CCc1cc2c(nc1CC)CCN(CCC(C)=NOC(C)CN1CCCCc3nc(C)c(C)cc31)C2 (stereo unspecified)", "experimental_result": 0.88}
{"molecule": "COc1ccc(O[C@H]2C=C[C@@H](C#Cc3ccccc3)O[C@@H]2CO)cc1", "experimental_result": 0.966}
{"molecule": "CCc1cc2c(nc1CC)CCN(CCC(C)=NOC[C@@H](C)[C@H](OCc1ccccc1)C(C)C)C2", "experimental_result": -1.39}
{"molecule": "C=CC[C@@H]1C=C[C@H](Oc2ccc(C)cc2)[C@@H](COC(=O)NCc2cccc3ccccc23)O1", "experimental_result": -0.142}
{"molecule": "COCC#Cc1ccc([C@@H]2N[C@H](C(=O)O)CC[C@H]2C)cc1", "experimental_result": 0.0402}
{"molecule": "CO[C@@H]1COC(=O)[C@@H]2CCCN2C(=O)[C@@H](C)COC(=O)CCC[C@H]1C", "experimental_result": 1.21}
{"molecule": "CC(C)CON=C1C[C@@H](O)[C@@H](O)[C@@H]2[C@@H]3C(=O)N([C@@H](C)c4ccccc4)C(=O)[C@@H]3CC[C@@H]12", "experimental_result": 0.0337}
{"molecule": "CC(=O)OC[C@H]1O[C@@H](ON=C(C)C)[C@H](OC(C)=O)[C@@H](OC(C)=O)[C@@H]1OC(C)=O", "experimental_result": -1.26}
{"molecule": "CC(C)(C)N1C(=O)[C@H]2[C@H]3[C@H](O)[C@H](O)CC(=NNC(=O)OCc4ccccc4)[C@@H]3CC[C@H]2C1=O", "experimental_result": 0.171}
{"molecule": "C[C@H]1CC[C@H]2C(=O)N[C@H](Cc3ccccc3)C(=O)N2[C@@H]1c1ccccc1", "experimental_result": 0.119}
{"molecule": "O=C1[C@H]2CCn3c(=O)n(Cc4cc5c(cc4Cl)OCO5)c(=O)n3[C@H]2[C@H](O)[C@@H]2O[C@H]12", "experimental_result": -0.0064}
{"molecule": "CCOC(=O)[C@H](Cc1ccccc1)NC(=O)CCC1CC(OC(=O)NCc2cccc3ccccc23)CC2(CCCC(COC(=O)NCCOc3ccccc3)O2)O1 (stereo partly specified)", "experimental_result": 0.419}
{"molecule": "CC(CCN1CCc2nc(-c3ccccc3)c(-c3ccccc3)cc2C1)=NO[C@H](C)c1cn([C@H](CO)Cc2ccccc2)nn1", "experimental_result": 0.545}
{"molecule": "CC(C)CON=C1C[C@@H](O)[C@@H](O)[C@@H]2[C@@H]3C(=O)N(Cc4ccc5c(c4)OCO5)C(=O)[C@@H]3CC[C@@H]12", "experimental_result": 0.289}

----------
Consider the following molecules and their measured composite z-score readings.
# Test system: Sam68 (KHDRBS1)
# test_description: Sam68 small-molecule binders, primary screen, biochemical, small-molecule microarray, 635 nm fluorescence (AID 1125);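 also: score merges 667 nm channel intensity with signal to noise over triplicate slides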
# measurement_parameters: small-molecule microarray binding, higher = more signal

{"chemical_string": "COC(=O)C1=C(C)N(Cc2ccccc2)C2=C3C(=O)OCC[C@@H]3[C@@](O)(C(=O)OC)C(=O)N2[C@@H]1c1ccccc1", "composite z-score": -0.0394}
{"chemical_string": "C=CC[C@@H]1C=C[C@H](ON=CC[C@@H]2C=C[C@H](OC(C)=O)[C@@H](COC(C)=O)O2)[C@@H](CO)O1", "composite z-score": 1.29}
{"chemical_string": "CCO[C@H](c1cc(OC)cc([N+](=O)[O-])c1OC)[C@H](C)[C@@H](OC)[C@H](C)C=CCC(=O)OC", "composite z-score": 0.724}
{"chemical_string": "CC(CCC(=O)OC[C@H]1O[C@H](C#Cc2ccccc2)C=C[C@@H]1Oc1ccc(C)cc1)=NO[C@@H](C)c1cc(-c2c(C)cc(C)cc2C)no1", "composite z-score": -0.42}

----------
Entries and their composite z-score
# study_system: Calmodulin-1 (Homo sapiens) (UniProt P0DP23)
# test_description: calcium-bound CALM1 binders on microarrays, profiling panel, artefact control for SMM control-protein annotation, biochemical, small-molecule microarray, Cy5-labelled CALM1, plus calcium (AID 1112);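 also: score merges spot fluorescence with signal to noise from triplicate slides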
# measurement_parameters: Cy5-CALM1 binding fluorescence, higher = more signal
property_name: composite z-score

{"compound": "COC(=O)[C@@H]1CC[C@H](C)[C@@H](c2ccc(C)cc2)N1C(=O)c1ccc(C=NOC[C@@H](O)[C@H]2O[C@@H]3OC(C)(C)O[C@@H]3[C@H]2O)cc1", "study_system": "Calmodulin-1 (Homo sapiens) (UniProt P0DP23)", "property_name": "composite z-score", "experimental_result": -0.12}
{"compound": "O=C(NCCC[N+]1=CC=NC1c1ccccc1)N1CCCc2nc(-c3ccc(Br)cc3)ccc21 (configuration not stated)", "study_system": "Calmodulin-1 (Homo sapiens) (UniProt P0DP23)", "property_name": "composite z-score", "experimental_result": 0.0894}
{"compound": "CC(C)CN1CCc2nc(-c3ccccc3)c3c(c2C1)CO[C@@H](C)C3", "study_system": "Calmodulin-1 (Homo sapiens) (UniProt P0DP23)", "property_name": "composite z-score", "experimental_result": 0.32}
{"compound": "COc1ccc(COC(=O)NN=C2C[C@@H](O)[C@@H](O)[C@@H]3[C@@H]4C(=O)N([C@@H](C)c5ccccc5)C(=O)[C@@H]4CC[C@@H]23)cc1", "study_system": "Calmodulin-1 (Homo sapiens) (UniProt P0DP23)", "property_name": "composite z-score", "experimental_result": -0.392}
{"compound": "COC(=O)CC=C[C@@H](C)[C@@H](C=NOC[C@@H](O)COCc1ccco1)NS(=O)(=O)c1ccc(C)cc1", "study_system": "Calmodulin-1 (Homo sapiens) (UniProt P0DP23)", "property_name": "composite z-score", "experimental_result": -2.64}
{"compound": "COC(=O)[C@H](C)NC(=O)CCC1CC(OC(=O)NCc2ccc3c(c2)OCO3)CC2(CCCC(COC(=O)NCCC(C)C)O2)O1 (some centres not stated)", "study_system": "Calmodulin-1 (Homo sapiens) (UniProt P0DP23)", "property_name": "composite z-score", "experimental_result": -0.682}
{"compound": "CC(CCN1CCCc2nc(C)c(C)cc21)=NOC[C@@H](C)[C@H](OCc1ccccc1)C(C)C", "study_system": "Calmodulin-1 (Homo sapiens) (UniProt P0DP23)", "property_name": "composite z-score", "experimental_result": -0.387}

----------
# test_description: osmotic lysis modulators in infected erythrocytes, primary screen, PSAC antagonist project, cell-based, P. falciparum Indochina, OD700, 3 h (AID 1156)
# measurement_parameters: higher = more signal, called active from +8 up or from −8 down
The source made the active and inactive calls.
Entries and their z-score
property_name: z-score

{"molecule": "O=C1[C@H]2[C@H]3[C@H](O)[C@H](O)CC(=NOC[C@@H](O)COCc4ccco4)[C@@H]3CC[C@H]2C(=O)N1Cc1ccccc1", "experimental_result": "0.618 (inactive)"}
{"molecule": "CC(=O)OC[C@H]1O[C@H](CC=NO[C@@H](C)c2cc(-c3c(C)cc(C)cc3C)no2)C=C[C@@H]1OC(C)=O", "experimental_result": "1.12 (inactive)"}
{"molecule": "O=C1[C@H]2[C@H]3[C@H](O)[C@H](O)CC(=NO[C@@H]4O[C@H](CO)[C@@H](O)[C@H](O)[C@H]4O)[C@H]3CC[C@H]2C(=O)N1C[C@@H]1CCCO1", "experimental_result": "0.0197 (inactive)"}
{"molecule": "CC(CCC(=O)OC[C@H]1O[C@H](C#Cc2ccccc2)C=C[C@@H]1Oc1ccc(C)cc1)=NOC(C)CN1CCCc2nc(C)c(C)cc21 (some centres not stated)", "experimental_result": "0.785 (inactive)"}
{"molecule": "C[C@]12CCC3c4ccc(OCC5CO5)cc4CCC3C1CC[C@@H]2O (some centres not stated)", "experimental_result": "0.269 (inactive)"}
{"molecule": "C=CC[C@@H]1C=C[C@H](ON=C[C@@H](NS(=O)(=O)c2ccc(C)cc2)[C@H](C)C=CCC(=O)OC)[C@@H](CO)O1", "experimental_result": "0.0436 (inactive)"}
{"molecule": "CC(C)=NO[C@@H](C)c1cn([C@H](CO)Cc2ccccc2)nn1", "experimental_result": "-0.222 (inactive)"}
{"molecule": "COCOc1ccc(Br)cc1C(=O)C=Cc1ccc2c(c1)OCO2", "experimental_result": "0.365 (inactive)"}
{"molecule": "CCOC(=O)CCN1C(=O)[C@H]2[C@@H]3C(=CC[C@H]2C1=O)C(=O)[C@H]1O[C@H]1[C@H]3O", "experimental_result": "0.587 (inactive)"}
{"molecule": "COC(=O)[C@H](C)NC(=O)CCC1CC(OC(=O)NCc2ccc3c(c2)OCO3)CC2(CCCC(COC(=O)NCc3ccccc3)O2)O1 (some centres not stated)", "experimental_result": "0.049 (inactive)"}
{"molecule": "O=C1[C@H]2[C@H]3[C@H](O)[C@H](O)CC(=NOC[C@@H](O)COCc4ccco4)[C@@H]3CC[C@H]2C(=O)N1c1cccc(Oc2ccccc2)c1", "experimental_result": "1.39 (inactive)"}
{"molecule": "CCN1C(=O)[C@H]2[C@H]3[C@H](O)[C@H](O)CC(=NO[C@@H]4O[C@H](CO)[C@@H](O)[C@H](O)[C@H]4O)[C@H]3CC[C@H]2C1=O", "experimental_result": "-0.677 (inactive)"}
{"molecule": "O=C1CCCC=C1C(O)COCc1ccccc1 (configuration not stated)", "experimental_result": "-0.0291 (inactive)"}
{"molecule": "COc1ccc(O[C@H]2C=C[C@@H](C#Cc3ccccc3)O[C@@H]2CO)cc1", "experimental_result": "-0.24 (inactive)"}
{"molecule": "COC(=O)C(C(=O)OC)C1CCCC(=O)C1 (configuration not stated)", "experimental_result": "0.426 (inactive)"}
{"molecule": "CC(C)(C)N1C(=O)[C@H]2[C@@H]3C(=CC[C@H]2C1=O)C(=O)[C@H]1O[C@H]1[C@H]3O", "experimental_result": "0.0794 (inactive)"}
{"molecule": "O=C1[C@H]2[C@H]3[C@H](O)[C@H](O)CC(=NOC[C@@H](O)COCc4ccco4)[C@@H]3CC[C@H]2C(=O)N1Cc1ccc2c(c1)OCO2", "experimental_result": "0.826 (inactive)"}
{"molecule": "C=C(C)C(=O)OC[C@H]1CN2[C@@H](CC[C@@H](C)[C@@H]2c2ccc(Br)cc2)C(=O)O1", "experimental_result": "-0.691 (inactive)"}
{"molecule": "CC(CCN1CCCCc2nc(C)c(C)cc21)=NOC[C@@H](O)[C@H]1O[C@@H]2OC(C)(C)O[C@@H]2[C@H]1O", "experimental_result": "0.637 (inactive)"}
{"molecule": "CCOC(=O)[C@H](Cc1ccccc1)NC(=O)CCC1CC(OC(=O)NCc2ccc3c(c2)OCO3)CC2(CCCC(COC(=O)NCCOc3ccccc3)O2)O1 (some centres not stated)", "experimental_result": "-0.0818 (inactive)"}
{"molecule": "COc1ccc(OC[C@@H](CO)OC)cc1", "experimental_result": "-0.566 (inactive)"}
{"molecule": "CO[C@@H]1[C@H](O)CO[C@H]1C=Cc1ccccc1", "experimental_result": "0.837 (inactive)"}
{"molecule": "COc1ccc(O[C@H]2C=C[C@@H](c3ccccc3)O[C@@H]2COC(=O)CCC(C)=NOC[C@@H](O)COCc2ccco2)cc1", "experimental_result": "0.382 (inactive)"}
{"molecule": "COc1ccc(O[C@H]2C=C[C@@H](c3ccccc3)O[C@@H]2CON=C2c3cc(OC)ccc3O[C@H](c3cccc(OC)c3)[C@H]2O)cc1", "experimental_result": "-0.392 (inactive)"}
{"molecule": "CC(CCC(=O)OC[C@H]1O[C@H](C#Cc2ccccc2)C=C[C@@H]1Oc1ccc(C)cc1)=NO[C@@H](C)c1cc(-c2c(C)cc(C)cc2C)no1", "experimental_result": "1.23 (inactive)"}
{"molecule": "CCC1=NOC(CCC2CC(OC(=O)NCc3cccc4c3OCO4)CC3(CCCC(COC(=O)NCCc4ccc(Cl)cc4)O3)O2)C1 (configuration not stated)", "experimental_result": "-0.747 (inactive)"}
{"molecule": "CO[C@H]1COC(=O)[C@H](C)COC(=O)[C@@H](OCc2ccccc2)C=C[C@@H]1C", "experimental_result": "-0.258 (inactive)"}
{"molecule": "CCO[C@H](c1cc(OC)cc([N+](=O)[O-])c1OC)[C@H](C)[C@@H](OC)[C@H](C)C=CCC(=O)OC", "experimental_result": "0.528 (inactive)"}
{"molecule": "CON=C(C)CCC(=O)OC[C@H]1O[C@H](C#Cc2ccccc2)C=C[C@@H]1Oc1ccc(C)cc1", "experimental_result": "-0.73 (inactive)"}
{"molecule": "CC[C@@H](c1ccccc1)n1c(=O)n2n(c1=O)[C@H]1[C@H](O)[C@@H]3O[C@@H]3C(=NOCc3ccccc3)[C@H]1CC2", "experimental_result": "1.1 (inactive)"}
{"molecule": "C[C@@H]1CC[C@H]2C(=O)OC(CN3C(=O)c4ccccc4C3=O)CN2[C@H]1c1ccc(Br)cc1 (some centres not stated)", "experimental_result": "-0.694 (inactive)"}
{"molecule": "CCOC(=O)[C@H](Cc1ccccc1)NC(=O)CCC1CC(OC(=O)NCCc2ccc(F)cc2)CC2(CCCC(COC(=O)NCCC(C)C)O2)O1 (some centres not stated)", "experimental_result": "0.005 (inactive)"}
